Tested on: RPMI-8226
Experiment description: NCI tumour cell line growth inhibition, 48 h
Activity calls are given as the source filed them. Cut-off read from the data, not from the text of the source: active = GI50 up to about 1.1 µM and inactive = higher.
Your response should consist of one outcome taken from YES for active, NO for inactive

Example cases with answers are listed next.
>>> df
                                   compound  qualitative_label
0  CNc1c2cccc(C)c2nc2c(C(=O)NCCN(C)C)cccc12                YES
1  O=c1[nH]c(-c2ccc(-c3nc4cc([N+](=O)[O-])ccc4c(=O)[nH]3)cc2)nc2cc([N+](=O)[O-])ccc12                 NO
2  COc1ccc(C(c2ccc3c(c2)OCO3)N2C(=O)CCC2C(=O)O)cc1 (centres undefined)                 NO
3  Cc1cccc(Nc2nc3ccccc3nc2NS(=O)(=O)c2ccccc2)c1                 NO
4  CC(=O)O[C@H]1[C@@H]2OC(=O)[C@@](O)(CC3CCCO3)[C@@H]2CC(=O)[C@](C)(O)CC/C=C(\C)CCC[C@@H]1C (some centres undefined)                 NO

Asked: Outcome? Cc1cccc(C(C)(C)C)c1NC(=O)C(=O)Cc1nc2ccccc2s1
Given back: NO

Asked: What is the recorded call for this compound in the test? O=C(Nc1nncs1)NS(=O)(=O)n1c(=S)sc2ccccc21
Given back: NO

Asked: Per the assay record, what outcome was assigned to CCCNC(/C=C/[Si](C)(C)C)CO.CCCNCC(O)/C=C/[Si](C)(C)C (centres undefined) ?
Given back: NO

Asked: Tell me the recorded outcome of this test for COc1ccc2cc1Oc1ccc(cc1)C[C@H]1c3cc(c(OC)cc3CCN1C)Oc1c(O)c(OC)cc3c1[C@H](C2)N(C)CC3 [FANGCHINOLINE] .
Given back: NO

====

System: MDA-MB-231
Experiment description: NCI tumour cell line growth inhibition, 48 h
Calls of active or inactive are those of the source. Cut-off read from the data, not from the text of the source: active = GI50 up to about 1.1 µM and inactive = higher.
Just give me one of these, please: y = active, n = inactive

>>> print(df.to_string())
                                   molecule  qualitative_label
0    COC(=O)c1ccc(NC(=O)O/N=C(\Cl)C(C)C)cc1                  n
1  COP(=O)(OC)C(Cc1cn(C(C)=O)c2ccccc12)C(=O)O (stereo unspecified)                  n
2  OC(c1cccnc1)C(F)(F)c1nc2ccccc2o1 (stereo unspecified)                  n

Asked: Recorded call for CN(C)CCCNC(=O)c1cc2/c(=C\c3ccc(N(C)C)cc3)c3ccccc3n2[n+]1C ?
Given back: n

Asked: Dear all, I need the recorded test outcome for Cc1ccc2oc(=O)c(C(=O)Nc3nc(C45CC6CC(CC(C6)C4)C5)cs3)cc2c1 , thank you.
Given back: n

Asked: // param item: COc1cc(OCc2ccc3nc(-c4ccccc4)c(Cl)nc3c2)cc(OC)c1OC ; yields the recorded call
Given back: n

Asked: Could you kindly confirm the outcome this assay logged for Cc1ccc(S(=O)(=O)N/N=C2/CC3CCC4CC2CC34)cc1 (stereo unspecified) ?
Given back: n

Asked: Hi team, can someone confirm the assay call for COc1ccc2[nH]c3c(C)c4ccnc(NCCCN(C)CCCNC(=O)NCCCN(C)CCCNc5nccc6c(C)c7[nH]c8ccc(OC)cc8c7c(C)c56)c4c(C)c3c2c1 ?
Given back: y

====

Tested on: SF-295
Experiment description: NCI tumour cell line growth inhibition, 48 h
Active and inactive are the calls of the source. Rule as the data show it: active = GI50 up to about 1.1 µM and inactive = higher.
// one of T = active, F = inactive, no free text

Compound	Qualitative label
C/C=C1/CC(C(=O)OC)N(C(=O)OCc2ccccc2)C1=S (stereo unspecified)	F

Asked: Call for entry [O-][n+]1ccccc1Sc1nc(Sc2cccc[n+]2[O-])nc(Sc2cccc[n+]2[O-])n1 :
Given back: F

Asked: Hello, I am checking results. What call was entered for O=C(O)CCNS(=O)(=O)c1ccc([N+](=O)[O-])cc1 ?
Given back: F

Asked: Dear colleague, could you share the recorded outcome for Cc1nn(C(=O)Cc2ccccc2)c2c1C(c1ccc(/C=C/c3ccccc3)cc1)SC(=N)N2 (stereo unspecified) when you have a moment?
Given back: F

Asked: I would be grateful if you could indicate the recorded call for CC(C)=CC(=O)Oc1ccc([N+](=O)[O-])cc1 .
Given back: F

Asked: Hi, do you know how O=C(O)CSc1nnc(Cc2ccccc2)[nH]1 came out in this test?
Given back: F

====

Tested on: EKVX
Experiment description: NCI tumour cell line growth inhibition, 48 h
The source made the active and inactive calls. Rule as the data show it: active = GI50 up to about 1.1 µM and inactive = higher.
Readout kind: GI50

Example entries and their recorded answers appear below.
                                   molecule      reported_result
0  COC(=O)[C@@H]1[C@H]2CC[C@]3(C)[C@@H](OC(C)=O)CC[C@H]3[C@@H]2CC[C@H]1C1(C)SCCS1   25.1 µM (inactive)
1  COc1cc2c(cc1OC)OC(c1c(OC)ccc(OC)c1O)CC2 (stereo not given)  > 100 µM (inactive)

Asked: Consider the molecule COc1ccc(C2OC(=O)c3c2ccc2ccccc32)c(C)c1 (stereo not given) and give its recorded GI50.
Given back: 6.07 µM (inactive)

Asked: Let me know recorded GI50 for CCCCCCCCCCCCc1ccc(S(=O)(=O)O)cc1 , thanks.
Given back: > 100 µM (inactive)

Asked: Note GI50 for the molecule shown: COC(=O)Nc1nc2cc(NS(=O)(=O)c3ccc(F)cc3)ccc2[nH]1
Given back: 31.3 µM (inactive)

Asked: Identify measured GI50 corresponding to CN(Cc1cnc2nc(N)nc(N)c2n1)c1ccc(C(=O)NCCCC(=O)O)cc1
Given back: > 29 µM (inactive)

Asked: Return value of GI50 for input Cc1cc(NS(=O)(=O)c2ccc(NC(=O)c3cccc4c(N)c5ccccc5nc34)cc2)no1 , no commentary.
Given back: 90.8 µM (inactive)

Asked: Supply recorded GI50 for Cc1cc(C)c2c(-c3ccccc3)cc(=O)[nH]c2c1 here.
Given back: > 100 µM (inactive)

Asked: Annotate the molecule O=[N+]([O-])c1ccc(-[n+]2ccc3ccccc3c2)c([N+](=O)[O-])c1 with its measured GI50.
Given back: 6.73 µM (inactive)

Asked: Give GI50 for COc1cc(C)cc2c1C(=O)C(NC(C)=O)=CC2=O
Given back: > 100 µM (inactive)

====

Tested on: IGROV-1
Experiment description: NCI tumour cell line growth inhibition, 48 h
Active and inactive are the calls of the source. Cut-off read from the data, not from the text of the source: active = GI50 up to about 1.1 µM and inactive = higher.
# key: entry, value: GI50

Observe how each entry below is paired with its result.
Compound	Reported result
COC(=O)C1=C(O)c2cc(OC)c(OC)cc2C(c2ccc(OC)c(OC)c2)C1 (stereo unspecified)	> 100 µM (inactive)
Cc1cc(O)c(O)c(Oc2cc(C)cc(O)c2O)c1	12.4 µM (inactive)
C[C@@H](O)CCC(=O)c1ccoc1	> 100 µM (inactive)
CCn1ncc2c1nc(-c1ccccc1)c[n+]2[O-]	> 100 µM (inactive)
CNS(=O)(=O)NN(C)S(=O)(=O)c1ccc(OC)cc1	> 100 µM (inactive)
COC1C=CC(O)C(CO)O1 (stereo unspecified)	> 100 µM (inactive)

Asked: Consider the compound CNC(=O)C1CCCN1C(=O)C(Cc1c[nH]cn1)NC(=O)C1CCC(=O)N1 (stereo unspecified) . State its measured GI50.
Given back: > 100 µM (inactive)

Asked: Tell me its GI50 given COc1ccc2nc3cc(Cl)ccc3c(NCCC[N+](C)(C)CCCCCCCCCCCCCCCC[N+](C)(C)CCCNc3c4ccc(Cl)cc4nc4ccc(OC)cc34)c2c1 as the entry.
Given back: 2.7 µM (inactive)

Asked: Quickly give me recorded GI50 for COc1cc(OCc2ccc3nc(-c4ccccc4)c(Cl)nc3c2)cc(OC)c1OC
Given back: 69.2 µM (inactive)

Asked: Return value of GI50 for input O=C(CSc1ncccn1)N/N=C/c1ccccc1OCc1ccccc1 , no commentary.
Given back: 28.4 µM (inactive)

Asked: Report GI50 for CCCCCc1cccc(=O)o1
Given back: > 100 µM (inactive)

Asked: Indicate its recorded GI50; the compound in question is CC(C)(C)c1cc2c(OP(c3ccccc3)c3ccccc3)c(c1)Cc1cc(C(C)(C)C)cc(c1OP(c1ccccc1)c1ccccc1)Cc1cc(C(C)(C)C)cc(c1OP(c1ccccc1)c1ccccc1)Cc1cc(C(C)(C)C)cc(c1OP(c1ccccc1)c1ccccc1)C2
Given back: > 5 µM (inactive)

Asked: Please give measured GI50 of the following entry: Cc1nn(C(=O)Cc2ccccc2)c2c1C(c1ccc(/C=C/c3ccccc3)cc1)SC(=N)N2 (stereo unspecified)
Given back: > 100 µM (inactive)

Asked: Assign GI50 to the following record: CC(=O)O[C@H]1[C@@H]2OC(=O)[C@@](O)(CC3CCCO3)[C@@H]2CC(=O)[C@](C)(O)CC/C=C(\C)CCC[C@@H]1C (stereo partly specified)
Given back: 46.5 µM (inactive)

Asked: Note GI50 for the compound shown: CC(=O)NCC1(c2ccccc2)CCN(CC2COc3ccccc3O2)CC1 (stereo unspecified)
Given back: > 100 µM (inactive)

Asked: Report GI50 for Cc1nnc(N)nc1/C=C/c1c(O)ccc2ccccc12
Given back: 13.7 µM (inactive)

Asked: Look up and state reported GI50 for Clc1ccc(Nc2nnc(CNc3ccc(-c4nnc(Nc5ccc(Cl)cc5)o4)cc3)o2)cc1
Given back: 14.1 µM (inactive)

Asked: Supply reported GI50 belonging to this compound: Cc1cccc(NS(=O)(=O)c2ccc(/N=N/c3c(O)c(C(=O)O)cc4ccccc34)cc2)n1
Given back: > 100 µM (inactive)

Asked: Return value of GI50 for input CCOP(=O)(OCC)OC1CC(n2cnc3c(N(CC)CC)ncnc32)OC1CO[Si](C)(C)C(C)(C)C (stereo unspecified) , no commentary.
Given back: 16.9 µM (inactive)

Asked: Item CC1(C)CC2C(/C1=N/O)C1(C)CCCC2(C)C1O (stereo unspecified) : provide GI50
Given back: > 100 µM (inactive)

Asked: Give GI50 for the following compound: COc1ccc(C[C@H]2COC(=O)[C@@H]2Cc2cc(OC)c(OC)c(OC)c2)cc1OC
Given back: > 94.6 µM (inactive)

Asked: Let me know recorded GI50 for Cn1cnc([N+](=O)[O-])c1Sc1nc2cccnc2[nH]1 , thanks.
Given back: 71.4 µM (inactive)

Asked: Output GI50 of CCCCCCCCCC(=O)Oc1cccc2onc(C)c12
Given back: > 100 µM (inactive)

Asked: Return reported GI50. Input compound: BrC1=CC=C2NC=CC3=CC=NC1C32 (stereo unspecified)
Given back: 25.6 µM (inactive)

Attribution: ChEMBL document CHEMBL1201862
